Target: T1, human iRhom2 (inactive rhomboid protein 2, isoform 1), endogenously expressed on human cells (human, UniProt Q6PJF5 1-856)
T1 sequence: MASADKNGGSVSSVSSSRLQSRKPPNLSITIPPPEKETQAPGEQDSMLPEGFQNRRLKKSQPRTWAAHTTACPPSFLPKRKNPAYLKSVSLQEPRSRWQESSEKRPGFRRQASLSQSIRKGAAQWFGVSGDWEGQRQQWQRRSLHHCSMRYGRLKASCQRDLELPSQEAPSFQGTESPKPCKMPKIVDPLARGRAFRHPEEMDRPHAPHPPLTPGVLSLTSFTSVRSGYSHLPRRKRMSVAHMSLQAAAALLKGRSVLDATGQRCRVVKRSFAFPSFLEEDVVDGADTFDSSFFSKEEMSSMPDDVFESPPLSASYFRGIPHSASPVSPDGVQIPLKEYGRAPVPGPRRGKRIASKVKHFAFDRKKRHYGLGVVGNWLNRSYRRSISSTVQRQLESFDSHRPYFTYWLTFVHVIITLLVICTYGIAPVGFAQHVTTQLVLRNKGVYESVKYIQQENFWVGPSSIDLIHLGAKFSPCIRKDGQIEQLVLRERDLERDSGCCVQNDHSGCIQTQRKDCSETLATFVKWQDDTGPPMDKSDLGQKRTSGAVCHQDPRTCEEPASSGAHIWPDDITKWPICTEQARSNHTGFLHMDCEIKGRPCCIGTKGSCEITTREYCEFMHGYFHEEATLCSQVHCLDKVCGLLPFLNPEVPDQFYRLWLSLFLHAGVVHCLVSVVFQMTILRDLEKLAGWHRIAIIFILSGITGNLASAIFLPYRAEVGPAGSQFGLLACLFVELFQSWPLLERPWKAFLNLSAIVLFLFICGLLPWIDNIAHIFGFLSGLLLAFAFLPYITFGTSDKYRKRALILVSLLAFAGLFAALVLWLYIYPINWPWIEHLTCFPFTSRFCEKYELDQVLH
Test: cell-based or functional assay
measure.name: inhibition of PMA-induced release of IL-6R from U-937 cells, 3 µg/ml

{"binder": "chimeric version of antibody 44 (antibody, V domains shown) VH: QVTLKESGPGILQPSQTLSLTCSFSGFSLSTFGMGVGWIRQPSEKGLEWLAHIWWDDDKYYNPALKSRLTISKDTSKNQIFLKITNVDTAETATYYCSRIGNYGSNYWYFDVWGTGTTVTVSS VL: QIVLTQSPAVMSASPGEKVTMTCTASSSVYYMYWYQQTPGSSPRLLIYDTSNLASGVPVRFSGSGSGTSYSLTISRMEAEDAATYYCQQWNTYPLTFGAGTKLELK", "recorded.result": "85.2 % inhibition"}
{"binder": "antibody 22 (antibody, V domains shown, Mouse IgG, kappa light chain; also called clone #22; m22) VH: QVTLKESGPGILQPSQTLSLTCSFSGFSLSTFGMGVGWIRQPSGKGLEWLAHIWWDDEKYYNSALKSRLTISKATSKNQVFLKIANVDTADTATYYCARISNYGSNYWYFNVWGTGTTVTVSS VL: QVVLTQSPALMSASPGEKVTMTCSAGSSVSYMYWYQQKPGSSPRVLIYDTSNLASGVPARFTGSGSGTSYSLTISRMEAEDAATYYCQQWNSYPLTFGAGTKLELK", "recorded.result": "79 % inhibition"}
{"binder": "antibody 16 (antibody, V domains shown, Mouse IgG, kappa light chain; also called clone #16; m16) VH: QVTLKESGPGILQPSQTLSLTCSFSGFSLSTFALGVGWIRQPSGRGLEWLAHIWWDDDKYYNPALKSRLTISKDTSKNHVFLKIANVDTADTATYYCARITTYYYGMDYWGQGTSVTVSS VL: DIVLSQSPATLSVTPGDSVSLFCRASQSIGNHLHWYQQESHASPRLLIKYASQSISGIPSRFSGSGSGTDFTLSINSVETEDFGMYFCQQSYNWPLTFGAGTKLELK", "recorded.result": "77.4 % inhibition"}
{"binder": "chimeric version of antibody 34 (antibody, V domains shown) VH: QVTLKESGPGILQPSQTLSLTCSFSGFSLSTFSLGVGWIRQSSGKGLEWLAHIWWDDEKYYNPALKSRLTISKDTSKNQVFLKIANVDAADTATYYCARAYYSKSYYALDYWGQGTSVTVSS VL: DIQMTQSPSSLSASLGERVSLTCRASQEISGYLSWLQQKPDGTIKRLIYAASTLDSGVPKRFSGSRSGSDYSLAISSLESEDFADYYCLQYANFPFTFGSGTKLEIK", "recorded.result": "82.8 % inhibition"}
{"binder": "chimeric version of antibody 42 (antibody, V domains shown) VH: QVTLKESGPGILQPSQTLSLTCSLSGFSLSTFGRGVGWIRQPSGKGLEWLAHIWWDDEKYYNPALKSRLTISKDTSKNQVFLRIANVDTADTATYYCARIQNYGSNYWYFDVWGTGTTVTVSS VL: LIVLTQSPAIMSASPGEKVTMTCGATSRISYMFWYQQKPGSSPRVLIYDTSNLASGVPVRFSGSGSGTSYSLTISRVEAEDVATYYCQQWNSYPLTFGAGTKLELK", "recorded.result": "91.8 % inhibition"}
